- experimental_system: HLA-A*01:01
- experiment_notes: IEDB peptide-MHC binding, purified MHC/direct/fluorescence; filed as Kd, often an IC50 or EC50 that approximates it; bounds were set here for any values at or beyond the usual limits of such assays
- setup_conditions: source organism: Escherichia coli O157:H7
pKd: −log10 of the molar value.
test_readout: pKd

HEVHAVWPG has a reported pKd of ≤ 4.70

MLKLRQARL has a reported pKd of ≤ 4.70

* * *

- experimental_system: HLA-B*40:02
- experiment_notes: IEDB peptide-MHC binding, purified MHC/competitive/radioactivity; filed as Kd, often an IC50 or EC50 that approximates it; bounds were set here for any values at or beyond the usual limits of such assays
- setup_conditions: source organism: Mammarenavirus juninense
Hi there, I'd appreciate the recorded Kd for every entry that follows.
Enter your answer as a number in nM; do not include the unit.

Form: item LESLWAPFGV ; test system HLA-B*40:02; Kd: 159

Form: item KDTPGGYCL ; test system HLA-B*40:02; Kd: 3480

Form: item EELSMMYESL ; test system HLA-B*40:02; Kd: 106

* * *

- experimental_system: HLA-A*02:50
- experiment_notes: IEDB peptide-MHC binding, purified MHC/competitive/fluorescence; filed as Kd, often an IC50 or EC50 that approximates it; bounds were set here for any values at or beyond the usual limits of such assays
- setup_conditions: source organism: Pseudomonas sp. MIS38
test_readout: Kd
Express your answer as a number followed by its unit.

YMLKDSAPT has a reported Kd of 30 nM

* * *

- experimental_system: HLA-B*58:01
- experiment_notes: IEDB peptide-MHC binding, purified MHC/competitive/fluorescence; bounds were set here for any values at or beyond the usual limits of such assays
- setup_conditions: source organism: Monodelphis domestica
pIC50: −log10 of the molar value.
test_readout: pIC50

Form: item YSLEYFQFVKK ; test system HLA-B*58:01; pIC50: ≤ 4.70

* * *

- experimental_system: HLA-B*15:01
- experiment_notes: IEDB peptide-MHC binding, purified MHC/direct/fluorescence; filed as Kd, often an IC50 or EC50 that approximates it; bounds were set here for any values at or beyond the usual limits of such assays
- setup_conditions: source organism: Giardia lamblia ATCC 50803
pKd: −log10 of the molar value.
Hi there, I'd appreciate the recorded pKd for every entry that follows.

ASSWAPTQK has a reported pKd of ≤ 4.70

IVKYKQYLK has a reported pKd of ≤ 4.70

SVFHEHIFK has a reported pKd of ≤ 4.70

YIASIFMPR has a reported pKd of ≤ 4.70

* * *

- experimental_system: HLA-B*08:01
- experiment_notes: IEDB peptide-MHC binding, purified MHC/competitive/fluorescence; bounds were set here for any values at or beyond the usual limits of such assays
- setup_conditions: source organism: Vaccinia virus WR
pIC50: −log10 of the molar value.
test_readout: pIC50

LPWTKISET has a reported pIC50 of ≤ 4.06

* * *

- experimental_system: HLA-B*27:05
- experiment_notes: IEDB peptide-MHC binding, purified MHC/competitive/fluorescence; filed as Kd, often an IC50 or EC50 that approximates it; bounds were set here for any values at or beyond the usual limits of such assays
- setup_conditions: source organism: Influenza A virus (A/environment/Hong Kong/437-10/99 (H5N1))
test_readout: Kd

KRMGVQVQR has a reported Kd of 99.8 nM

* * *

- experimental_system: HLA-A*26:01
- experiment_notes: IEDB peptide-MHC binding, purified MHC/competitive/fluorescence; filed as Kd, often an IC50 or EC50 that approximates it; bounds were set here for any values at or beyond the usual limits of such assays
- setup_conditions: source organism: Giardia lamblia ATCC 50803
test_readout: Kd

RIYDPLWFQ has a reported Kd of ≥ 20 µM

* * *

Hi there, I'd appreciate the recorded pKd for every entry that follows.
- experimental_system: HLA-B*53:01
- experiment_notes: IEDB peptide-MHC binding, purified MHC/competitive/radioactivity; filed as Kd, often an IC50 or EC50 that approximates it; bounds were set here for any values at or beyond the usual limits of such assays
- setup_conditions: source organism: Triticum aestivum
Scale for pKd: -log10 of concentration given in mol/L; no unit attached.

QPFPSQQPYL has a reported pKd of 5.07

LPYPQPQLPY has a reported pKd of 8.35

* * *

- experimental_system: HLA-A*31:01
- experiment_notes: IEDB peptide-MHC binding, purified MHC/competitive/fluorescence; filed as Kd, often an IC50 or EC50 that approximates it; bounds were set here for any values at or beyond the usual limits of such assays
- setup_conditions: source organism: Zaire ebolavirus
test_readout: pKd
Scale for pKd: -log10 of concentration given in mol/L; no unit attached.

RVPTVFHKK has a reported pKd of 7.57

* * *

- experimental_system: HLA-B*44:02
- experiment_notes: IEDB peptide-MHC binding, purified MHC/direct/fluorescence; filed as Kd, often an IC50 or EC50 that approximates it; bounds were set here for any values at or beyond the usual limits of such assays
- setup_conditions: source organism: Mycobacterium tuberculosis
test_readout: Kd

FHVNPAFVL has a reported Kd of ≥ 20 µM

* * *

- experimental_system: HLA-A*68:02
- experiment_notes: IEDB peptide-MHC binding, purified MHC/competitive/fluorescence; filed as Kd, often an IC50 or EC50 that approximates it; bounds were set here for any values at or beyond the usual limits of such assays
- setup_conditions: source organism: Entamoeba histolytica HM-1:IMSS
pKd: −log10 of the molar value.
test_readout: pKd

Form: item RSLVCLAPK ; test system HLA-A*68:02; pKd: ≤ 4.70

* * *

- experimental_system: HLA-A*11:01
- experiment_notes: IEDB peptide-MHC binding, purified MHC/direct/fluorescence; filed as Kd, often an IC50 or EC50 that approximates it; bounds were set here for any values at or beyond the usual limits of such assays
- setup_conditions: source organism: Dengue virus
test_readout: pKd
Scale for pKd: -log10 of concentration given in mol/L; no unit attached.

TVNPIVTEK has a reported pKd of 8.64

* * *

- experimental_system: HLA-B*27:03
- experiment_notes: IEDB peptide-MHC binding, purified MHC/competitive/fluorescence; filed as Kd, often an IC50 or EC50 that approximates it; bounds were set here for any values at or beyond the usual limits of such assays
- setup_conditions: source organism: Giardia lamblia ATCC 50803
test_readout: Kd

Form: item RIYDPLWFQ ; test system HLA-B*27:03; Kd: ≥ 20 µM

* * *

- experimental_system: HLA-A*26:01
- experiment_notes: IEDB peptide-MHC binding, purified MHC/competitive/fluorescence; filed as Kd, often an IC50 or EC50 that approximates it; bounds were set here for any values at or beyond the usual limits of such assays
- setup_conditions: source organism: Salmonella enterica subsp. enterica serovar Typhi
test_readout: Kd (nM)
Enter your answer as a number in nM; do not include the unit.

SVIDHIHYM has a reported Kd of 0.28

* * *

- experimental_system: HLA-A*02:11
- experiment_notes: IEDB peptide-MHC binding, purified MHC/competitive/fluorescence; filed as Kd, often an IC50 or EC50 that approximates it; bounds were set here for any values at or beyond the usual limits of such assays
- setup_conditions: source organism: Entamoeba histolytica HM-1:IMSS
pKd: −log10 of the molar value.
test_readout: pKd

RSLVCLAPK has a reported pKd of ≤ 4.70

* * *

- experimental_system: HLA-A*03:01
- experiment_notes: IEDB peptide-MHC binding, purified MHC/competitive/radioactivity; filed as Kd, often an IC50 or EC50 that approximates it; bounds were set here for any values at or beyond the usual limits of such assays
- setup_conditions: source organism: Vaccinia virus WR
test_readout: pKd
Scale for pKd: -log10 of concentration given in mol/L; no unit attached.

ILAALFMYY has a reported pKd of 9.76

TMPNESRVK has a reported pKd of 4.76

RAVKFAEESY has a reported pKd of 4.83

DLLFNEKLK has a reported pKd of 5.72

CVDIFTEGK has a reported pKd of 5.43

TIDNPTKYIR has a reported pKd of 4.80

ILEYLYIMR has a reported pKd of 5.80

GVRVRVAVNK has a reported pKd of 7.28

KLILAEYIR has a reported pKd of 5.09

NIVTDLENR has a reported pKd of 5.04

STAEQLSKY has a reported pKd of 5.61

NIQKITVFNK has a reported pKd of 7.32

HVCNATDFWR has a reported pKd of 5.17

ITSTKTIEY has a reported pKd of 6.91

VTPEYIKDLK has a reported pKd of 4.84

PVSDLYTSMR has a reported pKd of 5.20

DVSLSAYIIR has a reported pKd of 5.62

CIRNASKFVY has a reported pKd of 4.76

IISIRPRVTK has a reported pKd of 7.26

IVTMMKYCSY has a reported pKd of 6.90

HVDGKILFV has a reported pKd of 5.50

WLYYNQDVQR has a reported pKd of 5.74

AVNKSNKPLK has a reported pKd of 5.96

DFLKDDTLSK has a reported pKd of 4.82

SMTIREFPRK has a reported pKd of 8.00

HIIDSFNIR has a reported pKd of 5.77

TINVNSLALK has a reported pKd of 7.76

LLVKMINHLK has a reported pKd of 6.59

GSSKGNCAIK has a reported pKd of 7.60

LVYIFEPEK has a reported pKd of 6.42

FSSLRREHIK has a reported pKd of 5.99

GLYNHNNTTY has a reported pKd of 7.68

DSDVSLIIEY has a reported pKd of 5.32

EIARIENEMK has a reported pKd of 5.25

VAEHRFENMK has a reported pKd of 5.31

LIKTILASY has a reported pKd of 6.25

KSIENKHQR has a reported pKd of 4.90

Attribution: the Immune Epitope Database (IEDB)
